- Experimental Target: T1, huIL-18Rβ-HisAvi (human, UniProt O95256 20-356, biotinylated in the Octet blocking assay)
- T1 construct: Soluble analyte in all SPR runs; captured on streptavidin sensors in the Octet assay; also called human IL-18Rβ; human IL-18Rβ-Avi-His
- T1 sequence: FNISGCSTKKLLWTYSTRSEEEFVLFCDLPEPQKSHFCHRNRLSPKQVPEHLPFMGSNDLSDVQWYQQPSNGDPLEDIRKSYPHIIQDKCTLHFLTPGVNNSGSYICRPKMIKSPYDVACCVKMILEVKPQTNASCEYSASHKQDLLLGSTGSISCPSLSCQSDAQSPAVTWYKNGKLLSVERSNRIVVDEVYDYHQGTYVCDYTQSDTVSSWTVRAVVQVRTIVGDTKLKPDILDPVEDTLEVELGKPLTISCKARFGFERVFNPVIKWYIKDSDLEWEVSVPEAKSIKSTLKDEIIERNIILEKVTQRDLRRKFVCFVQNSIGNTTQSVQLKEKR
- Method Notes: SPR T200, mAb on anti-hFc, 37C, pH 7.4
Value Kind: kon (M⁻¹ s⁻¹)
Please state the figure in M⁻¹ s⁻¹; there is no need to write the unit.

Query block: Item P20-V3 (antibody, human IgG1, kappa, V domains shown, Variant of P20) VH: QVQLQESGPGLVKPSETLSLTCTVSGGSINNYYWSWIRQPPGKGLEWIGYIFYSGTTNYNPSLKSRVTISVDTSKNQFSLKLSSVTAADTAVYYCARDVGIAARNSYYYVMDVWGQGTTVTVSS VL: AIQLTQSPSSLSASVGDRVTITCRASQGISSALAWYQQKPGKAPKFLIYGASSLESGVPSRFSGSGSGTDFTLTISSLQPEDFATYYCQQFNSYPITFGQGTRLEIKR : provide kon
Result block: 270000
